Reference for the values: patent US12077503B2

test system: Galium (catchweed bedstraw, Galium aparine); assay: Test A postemergence; assay type: in vivo; conditions: Galium, post-emergence, 240 h, 125 g ai/ha, Postemergence, visual rating about 10 d after treatment; read-out: Galium plant response rating (0 to 100 scale)
MEASUREMENT_KIND: pest or weed control at 125 g/ha

[[record]]
compound = "COc1c([C@H]2CN(C)C(=O)[C@@H]2C(=O)Nc2ccccc2SC)cccc1C(F)(F)F"
measured_target = "Galium (catchweed bedstraw, Galium aparine)"
measurement_kind = "pest or weed control at 125 g/ha"
result = "20%"

[[record]]
compound = "CN1C[C@H](c2ccc(C(F)(F)F)nc2)[C@@H](C(=O)Nc2ccc(F)c(F)c2F)C1=O"
measured_target = "Galium (catchweed bedstraw, Galium aparine)"
measurement_kind = "pest or weed control at 125 g/ha"
result = "60%"

[[record]]
compound = "Cc1cccc([C@H]2CN(C)C(=O)[C@@H]2C(=O)Nc2cccnc2F)c1"
measured_target = "Galium (catchweed bedstraw, Galium aparine)"
measurement_kind = "pest or weed control at 125 g/ha"
result = "20%"

[[record]]
compound = "CN1C[C@H](c2ccc(C(F)(F)F)cc2)[C@@H](C(=O)Nc2ccccc2-n2cccn2)C1=O"
measured_target = "Galium (catchweed bedstraw, Galium aparine)"
measurement_kind = "pest or weed control at 125 g/ha"
result = "0%"

[[record]]
compound = "O=C1NC[C@H](c2cccc(C(F)(F)F)c2)[C@H]1C(=O)Nc1ccccc1-n1cncn1"
measured_target = "Galium (catchweed bedstraw, Galium aparine)"
measurement_kind = "pest or weed control at 125 g/ha"
result = "0%"

[[record]]
compound = "O=C1NC[C@H](c2cncs2)[C@H]1C(=O)Nc1cccc(F)c1F"
measured_target = "Galium (catchweed bedstraw, Galium aparine)"
measurement_kind = "pest or weed control at 125 g/ha"
result = "0%"

[[record]]
compound = "CN1C[C@H](c2csc3c2CCC(F)(F)C3)[C@@H](C(=O)Nc2ccc(F)c(F)c2F)C1=O (racemic)"
measured_target = "Galium (catchweed bedstraw, Galium aparine)"
measurement_kind = "pest or weed control at 125 g/ha"
result = "30%"


----------
test system: ragweed (common ragweed, Ambrosia elatior); assay: Test A preemergence; assay type: in vivo; conditions: Ambrosia artemisiifolia, pre-emergence, 240 h, 125 g ai/ha, Preemergence, visual injury rating after approximately 10 d; read-out: Ragweed plant response rating (0 to 100 scale, 0 is no effect, 100 is complete control)
MEASUREMENT_KIND: pest or weed control at 125 g/ha (%)

[[record]]
molecule = "CC(C)Oc1ccc([C@H]2CN(C)C(=O)[C@@H]2C(=O)Nc2ccccc2F)cc1"
readout_number = 0

[[record]]
molecule = "CN1C[C@H](c2cc(F)cc(Cl)c2)[C@@H](C(=O)Nc2ccccc2S(C)(=O)=O)C1=O"
readout_number = 50

[[record]]
molecule = "Cc1ccc([C@H]2CNC(=S)[C@@H]2C(=O)Nc2ccccc2F)cc1 (racemic)"
readout_number = 0

[[record]]
molecule = "CN1C[C@H](c2cc(C(F)(F)F)cs2)[C@@H](C(=O)Nc2ccccc2F)C1=O"
readout_number = 20

[[record]]
molecule = "Cc1ccc([C@H]2CNC(=S)[C@@H]2C(=O)Nc2cccc(F)c2F)cc1 (racemic)"
readout_number = 0

[[record]]
molecule = "CN1CC[C@H](c2ccc(OC(F)(F)F)cc2)[C@@H](C(=O)Nc2cccc(F)c2F)C1=O"
readout_number = 0

[[record]]
molecule = "COc1ccc([C@H]2CN(C)C(=O)[C@@H]2C(=O)Nc2ccccc2SC)cc1C(F)(F)F"
readout_number = 0

[[record]]
molecule = "CC(C)=CC1CNC(=O)C1C(=O)Nc1cccc(F)c1F (stereo not drawn)"
readout_number = 0

[[record]]
molecule = "CN1CC[C@H](c2ccc(OC(F)(F)F)cc2)[C@@H](C(=O)Nc2ccccc2C(F)(F)F)C1=O"
readout_number = 0

